Assay: Drug concentration in Sprague-Dawley rat brain at 25 mg/kg, po administered via gavage incubated for 2 hrs by LC/MS-MS analysis
Format: ADME, organism-based
Settings: read-out: Ct
QUANTITY_NAME: concentration at 2 h (ng/mL)

[[record]]
smiles_repr = "Cc1c(C#Cc2cnc3cnc(-c4ccc(N)cc4)cn23)cccc1C(=O)Nc1cc(CN2CCN(C)CC2)cc(C(C)C)c1"
quantitative_result = 0.355


* * *

Measured IC50 accompanies every entry in the list below.
Molecular target: NT-3 growth factor receptor (Homo sapiens, UniProt Q16288)
Sequence (Q16288 whole entry, the tested form may be a part): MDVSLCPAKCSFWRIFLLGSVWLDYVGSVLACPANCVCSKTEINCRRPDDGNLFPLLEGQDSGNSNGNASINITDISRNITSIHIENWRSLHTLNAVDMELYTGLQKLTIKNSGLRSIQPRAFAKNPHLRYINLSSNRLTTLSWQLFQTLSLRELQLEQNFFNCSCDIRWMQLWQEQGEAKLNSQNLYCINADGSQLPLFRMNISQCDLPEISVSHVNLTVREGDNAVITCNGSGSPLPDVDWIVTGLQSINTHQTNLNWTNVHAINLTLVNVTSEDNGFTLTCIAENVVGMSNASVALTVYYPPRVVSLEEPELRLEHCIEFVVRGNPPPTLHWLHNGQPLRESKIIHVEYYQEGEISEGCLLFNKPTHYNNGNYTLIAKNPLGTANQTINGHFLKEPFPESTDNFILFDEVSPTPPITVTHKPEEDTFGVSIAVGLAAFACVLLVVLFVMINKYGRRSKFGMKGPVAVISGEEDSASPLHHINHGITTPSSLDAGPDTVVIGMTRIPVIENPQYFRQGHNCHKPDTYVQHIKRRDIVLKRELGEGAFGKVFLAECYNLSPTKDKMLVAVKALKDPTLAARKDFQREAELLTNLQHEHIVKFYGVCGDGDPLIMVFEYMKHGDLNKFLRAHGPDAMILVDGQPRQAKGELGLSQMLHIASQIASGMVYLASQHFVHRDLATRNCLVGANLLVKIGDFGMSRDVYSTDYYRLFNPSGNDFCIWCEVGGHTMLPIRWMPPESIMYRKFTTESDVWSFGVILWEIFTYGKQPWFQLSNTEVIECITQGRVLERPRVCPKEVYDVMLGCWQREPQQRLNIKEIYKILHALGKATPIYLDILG
Experiment: Inhibition of recombinant human His-tagged TrkC cytoplasmic domain (510 to 825 residues) expressed in baculovirus using tyr 01 as substrate incubated for 1 hr by Z'-Lyte assay
QUANTITY_NAME: IC50

[[record]]
smiles_repr = "CCCc1c(C#Cc2cnc3cnccn23)cccc1C(=O)Nc1cc(CN2CCN(C)CC2)cc(C(F)(F)F)c1"
result = "> 1000 nM"

[[record]]
smiles_repr = "CC(C)c1c(C#Cc2cnc3cnccn23)cccc1C(=O)Nc1cc(CN2CCN(C)CC2)cc(C(F)(F)F)c1"
result = "> 1000 nM"

[[record]]
smiles_repr = "Cc1c(C#Cc2cnc3cnc(-c4ccc(N)cc4)cn23)cccc1C(=O)Nc1cc(CN2CCN(C)CC2)cc(C(C)C)c1"
result = "2.95 nM"

